- assayTarget: Cyclin-dependent kinase 1/cyclin B1 (Homo sapiens)
- Sequence (P06493 whole entry): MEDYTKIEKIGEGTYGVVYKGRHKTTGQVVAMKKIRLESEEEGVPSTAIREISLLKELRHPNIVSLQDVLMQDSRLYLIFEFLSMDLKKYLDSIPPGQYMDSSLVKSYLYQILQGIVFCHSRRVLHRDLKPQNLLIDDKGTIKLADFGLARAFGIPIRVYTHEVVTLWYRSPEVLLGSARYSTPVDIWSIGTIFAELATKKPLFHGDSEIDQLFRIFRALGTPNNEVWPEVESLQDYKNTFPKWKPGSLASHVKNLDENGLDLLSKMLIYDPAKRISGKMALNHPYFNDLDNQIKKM
- Sequence (P14635 whole entry, further chain): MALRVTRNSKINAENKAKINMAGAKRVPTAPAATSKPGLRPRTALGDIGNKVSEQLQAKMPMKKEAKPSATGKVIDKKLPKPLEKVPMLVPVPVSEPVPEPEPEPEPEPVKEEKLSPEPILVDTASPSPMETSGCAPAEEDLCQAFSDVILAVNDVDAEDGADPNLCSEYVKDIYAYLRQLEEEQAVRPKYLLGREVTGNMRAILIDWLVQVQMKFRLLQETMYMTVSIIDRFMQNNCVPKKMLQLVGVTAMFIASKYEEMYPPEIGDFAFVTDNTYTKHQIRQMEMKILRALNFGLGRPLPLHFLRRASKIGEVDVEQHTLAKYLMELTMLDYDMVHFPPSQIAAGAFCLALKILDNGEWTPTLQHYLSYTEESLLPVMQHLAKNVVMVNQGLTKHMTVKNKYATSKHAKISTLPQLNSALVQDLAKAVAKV
- assay: Inhibition of Cdk1/cyclin B
endpointName: log10(IC50) (log10 of the value in µM)
// do not treat as linear: log10 of IC50, unit µM

q: Please indicate log10(IC50) recorded for CN(C)Cc1c(O)c(O)c(O)c2c(=O)cc(-c3ccccc3)oc12
a: 0.02

q: Please indicate log10(IC50) recorded for O=c1c(O)c(-c2ccc(O)c(O)c2)oc2c(CN3CCCCC3)c(O)cc(O)c12
a: 1.27

q: Please indicate log10(IC50) recorded for CN1CCN(Cc2c(O)c(O)c(O)c3c(=O)cc(-c4ccccc4)oc23)CC1
a: -0.57

q: Please indicate log10(IC50) recorded for O=c1cc(-c2ccccc2)oc2c(CN3CCCC3)c(O)c(O)c(O)c12
a: 0.09

q: Please indicate log10(IC50) recorded for O=C(O)[C@H]1O[C@@H](Oc2cc3oc(-c4ccccc4)cc(=O)c3c(O)c2O)[C@H](O)[C@@H](O)[C@@H]1O
a: 1.16

q: Please indicate log10(IC50) recorded for O=c1cc(-c2ccccc2)oc2c(CN3CCOCC3)c(O)c(O)c(O)c12
a: -0.55

q: Please indicate log10(IC50) recorded for O=c1cc(-c2ccccc2)oc2cc(O)c(O)c(O)c12
a: 0.81

q: Please indicate log10(IC50) recorded for O=c1cc(-c2ccccc2)oc2c(CN3CCSCC3)c(O)c(O)c(O)c12
a: -0.42

q: Please indicate log10(IC50) recorded for CN(C)Cc1c(O)cc(O)c2c(=O)c(O)c(-c3ccc(O)c(O)c3)oc12
a: 1.20

q: Please indicate log10(IC50) recorded for COC(=O)[C@H]1O[C@@H](Oc2cc3oc(-c4ccccc4)cc(=O)c3c(O)c2O)[C@H](O)[C@H](O)[C@@H]1O [BAICALIN METHYLATE]
a: 1.06

q: Please indicate log10(IC50) recorded for O=c1cc(-c2ccccc2)oc2c(CN3CCCCC3)c(O)c(O)c(O)c12
a: 0.11
